System: SW-620
Assay: Inhibition of colon carcinoma cell line (SW 620) growth
Format: functional, cell-based
Settings: Homo sapiens
Each entry below lists one item and its recorded IC50 value.

Please review the following examples before continuing.
For reference, reported IC50 for CC(C)C(NC(=O)n1nnc2ccccc21)C(=O)NC1CCCCC1 (centres undefined) stands at > 100 µM

Recorded result, O=C(NC(c1ccccc1)c1ccccc1)C(NC(=O)n1nnc2ccccc21)c1ccccc1 (centres undefined) , IC50: 51.7 µM

Value of IC50 reported for the molecule CCC(C)C(NC(=O)NO)C(=O)NC1CCCCC1 (centres undefined) is > 100 µM

***
# molecule O=C(NCC1CCCCC1)C(NC(=O)n1nnc2ccccc21)c1ccccc1 (centres undefined) ; its IC50 = > 100 µM

The measured IC50 associated with O=C(NO)NC(Cc1ccccc1)C(=O)NC1CCCC1 (centres undefined) reads > 100 µM

Recorded IC50 (molecule CC(C)C(NC(=O)NO)C(=O)NC1CCCCC1 (centres undefined) ): > 100 µM

Lab note: measured IC50 of O=C(C(NC(=O)n1nnc2ccccc21)c1ccccc1)N1CCCCC1 (centres undefined) was > 100 µM

The reported value for O=C(NO)NC(Cc1ccccc1)C(=O)NC1CCCCC1 (centres undefined) in terms of IC50 is 100 µM

The recorded IC50 for CC(C)C(NC(=O)NO)C(=O)NC1CCCC1 (centres undefined) is > 100 µM

The reported value for O=C(C(Cc1ccccc1)NC(=O)n1nnc2ccccc21)N1CCCC1 (centres undefined) in terms of IC50 is > 100 µM

Entry CC(C)C1NC(=O)N(C2CCCCC2)C1=O (centres undefined) , IC50 reported as > 100 µM

Entry O=C(NO)NC(Cc1ccccc1)C(=O)NCc1ccccc1 (centres undefined) — recorded IC50 = > 100 µM

For this molecule ( O=C(NO)NC(C(=O)NC(c1ccccc1)c1ccccc1)c1ccccc1 (centres undefined) ), measured IC50 is 63.7 µM

What the record says about CC(C)C(NC(=O)n1nnc2ccccc21)C(=O)NC1CCCC1 (centres undefined) : IC50 is > 200 µM

// IC50 value for O=C1NC(c2ccccc2)C(=O)N1Cc1ccccc1 (centres undefined) : 96.8 µM

// recorded IC50 for O=C(NO)NC(Cc1ccccc1)C(=O)N1CCCC1 (centres undefined) : > 100 µM

Sample O=C(NC(c1ccccc1)c1ccccc1)C(Cc1ccccc1)NC(=O)n1nnc2ccccc21 (centres undefined) ; IC50 observed: 37.6 µM

IC50 reported for this molecule O=C(NO)NC(Cc1ccccc1)C(=O)NC(c1ccccc1)c1ccccc1 (centres undefined) : 66.6 µM

Notebook: O=C(NC1CCCCC1)C(NC(=O)n1nnc2ccccc21)c1ccccc1 (centres undefined) , IC50 read as > 100 µM

* * *

Listing of recorded pIC50 by entry.
System: L1210
Test: Inhibition of murine leukemia cells (L1210) growth
Assay type: functional, cell-based
Details: Mus musculus
Lab note — pIC50 values are minus log10 of concentrations in M.

Summary for this compound, O=C(NC1CCCCC1)C(Cc1ccccc1)NC(=O)n1nnc2ccccc21 (stereo unspecified) : pIC50 is 3.90

Data point: CCC(C)C(NC(=O)NO)C(=O)NC1CCCCC1 (stereo unspecified) ; pIC50 = 4.05

The recorded pIC50 for entry O=C(NC(c1ccccc1)c1ccccc1)C(Cc1ccccc1)NC(=O)n1nnc2ccccc21 (stereo unspecified) equals 4.77

In plain terms, CC(C)C(NC(=O)n1nnc2ccccc21)C(=O)NC1CCCCC1 (stereo unspecified) has a documented pIC50 of 3.97

Data point: O=C(NCC1CCCCC1)C(NC(=O)n1nnc2ccccc21)c1ccccc1 (stereo unspecified) ; pIC50 = 4.01

Further cases:
Lab note: O=C(NC1CCCCC1)C(NC(=O)n1nnc2ccccc21)c1ccccc1 (stereo unspecified) gave pIC50 of 4.02

Note to self: pIC50 recorded for O=C(NO)NC(C(=O)N1CCCCC1)c1ccccc1 (stereo unspecified) was 4.10

Input O=C(NC(c1ccccc1)c1ccccc1)C(NC(=O)n1nnc2ccccc21)c1ccccc1 (stereo unspecified) . Output pIC50: 3.94

Item: O=C(C(Cc1ccccc1)NC(=O)n1nnc2ccccc21)N1CCCC1 (stereo unspecified) | pIC50: 3.88

So for O=C(NO)NC(Cc1ccccc1)C(=O)NCc1ccccc1 (stereo unspecified) , the logged pIC50 turned out to be 4.77

* * *

Test system: MOLT-4
Assay: Inhibition of human T-lymphocyte cell line (Molt4/C8) growth
Assay type: functional, cell-based
Catalogue of molecules with associated pIC50
Please keep in mind that pIC50 is minus log10 of the molar concentration; only the number is needed.

Consider the worked cases shown below.
Param item: O=C(NC1CCCC1)C(Cc1ccccc1)NC(=O)n1nnc2ccccc21 (stereo not drawn) ; param system: MOLT-4; output pIC50: 4.21

Given the molecule CCC(C)C(NC(=O)n1nnc2ccccc21)C(=O)NC1CCCCC1 (stereo not drawn) and test system MOLT-4, the measured pIC50 is 4.01

// molecule O=C(NO)NC(Cc1ccccc1)C(=O)NC1CCCCC1 (stereo not drawn) , assay MOLT-4, pIC50 value: 4.72

Query O=C(NCC1CCCCC1)C(NC(=O)n1nnc2ccccc21)c1ccccc1 (stereo not drawn) on MOLT-4; pIC50 returned: 4.14

Further cases:
Reported pIC50 (MOLT-4) for entry CC(C)C(NC(=O)n1nnc2ccccc21)C(=O)NC1CCCCC1 (stereo not drawn) is 4.01

For the molecule CCC(C)C(NC(=O)n1nnc2ccccc21)C(=O)NCc1ccccc1 (stereo not drawn) , the measured pIC50 on MOLT-4 was 4.02

The value of pIC50 recorded for CCC(C)C(NC(=O)n1nnc2ccccc21)C(=O)NC(c1ccccc1)c1ccccc1 (stereo not drawn) when tested on MOLT-4 reads 4.10

Entry O=C(C(Cc1ccccc1)NC(=O)n1nnc2ccccc21)N1CCCC1 (stereo not drawn) ; assay system MOLT-4; pIC50 recorded at 3.91

The molecule CCC(C)C(NC(=O)NO)C(=O)NCc1ccccc1 (stereo not drawn) , when measured on MOLT-4, yielded pIC50 of 3.90

Record CCC(C)C(NC(=O)NO)C(=O)NC(c1ccccc1)c1ccccc1 (stereo not drawn) has MOLT-4 pIC50 equal to 4.25

# O=C(NCc1ccccc1)C(Cc1ccccc1)NC(=O)n1nnc2ccccc21 (stereo not drawn) with MOLT-4: pIC50 is 3.84

With MOLT-4 as the test system, O=C(NO)NC(Cc1ccccc1)C(=O)NCc1ccccc1 (stereo not drawn) showed pIC50 of 4.92

Readout pIC50 for O=C(NC(c1ccccc1)c1ccccc1)C(Cc1ccccc1)NC(=O)n1nnc2ccccc21 (stereo not drawn) , test system MOLT-4, was 4.82

Assay MOLT-4, sample O=C(NO)NC(C(=O)N1CCCCC1)c1ccccc1 (stereo not drawn) , pIC50 read: 3.90

Record for CCC(C)C(NC(=O)n1nnc2ccccc21)C(=O)NC1CCCC1 (stereo not drawn) under target or system MOLT-4: pIC50 reported as 4.03

Known value: MOLT-4 pIC50 of the molecule O=C(NC1CCCCC1)C(Cc1ccccc1)NC(=O)n1nnc2ccccc21 (stereo not drawn) equals 3.94

Log: MOLT-4, molecule O=C(NO)NC(Cc1ccccc1)C(=O)N1CCCC1 (stereo not drawn) , pIC50 = 3.72

Observed pIC50 on MOLT-4, entry O=C(NO)NC(Cc1ccccc1)C(=O)NC(c1ccccc1)c1ccccc1 (stereo not drawn) , equals 4.68

The value of pIC50 recorded for O=C(C(NC(=O)n1nnc2ccccc21)c1ccccc1)N1CCCCC1 (stereo not drawn) when tested on MOLT-4 reads 4.09

* * *

Measured IC50, listed per entry.
Test system: SW-620
Experiment: Inhibition of colon carcinoma cell line (SW 620) growth
Type: functional, cell-based
Conditions: Homo sapiens

These solved cases illustrate the format of a correct answer.
The compound listed as O=C1NC(c2ccccc2)C(=O)N1C1CCCC1 (stereo not given) has a reported IC50 of > 100 µM

Input O=C(NO)NC(C(=O)N1CCCCC1)c1ccccc1 (stereo not given) . Output IC50: > 100 µM

Kindly note the recorded IC50 for CC(C)C1NC(=O)N(C2CCCC2)C1=O (stereo not given) , which is > 100 µM

Entry O=C(NC1CCCCC1)C(Cc1ccccc1)NC(=O)n1nnc2ccccc21 (stereo not given) — recorded IC50 = 110 µM

// moving on: another record for IC50
What the record says about O=C(NC1CCCC1)C(Cc1ccccc1)NC(=O)n1nnc2ccccc21 (stereo not given) : IC50 is > 100 µM

* * *

Listing of recorded IC50 by entry.
Tested on: L1210
Test: Inhibition of murine leukemia cells (L1210) growth
Format: functional, cell-based
Settings: Mus musculus

IC50 of CC(C)C(NC(=O)NO)C(=O)NC1CCCCC1 (stereo unspecified) , assay on L1210, is > 100 µM

Test item CC(C)C(NC(=O)NO)C(=O)NC1CCCC1 (stereo unspecified) ; L1210; reported IC50 was > 200 µM

Readout IC50 for CC(C)C1NC(=O)N(C2CCCCC2)C1=O (stereo unspecified) , test system L1210, was > 200 µM

Record O=C(NO)NC(Cc1ccccc1)C(=O)N1CCCC1 (stereo unspecified) / L1210, IC50 recorded as > 200 µM

Measured IC50 for this entry CC(C)C1NC(=O)N(C2CCCC2)C1=O (stereo unspecified) on L1210: > 200 µM

# next compound below
Value sought: IC50, system L1210, item O=C1NC(c2ccccc2)C(=O)N1Cc1ccccc1 (stereo unspecified) . Result: > 200 µM
